Value source: paper PMC11048033

# System: A549 (human lung adenocarcinoma) cell line
# Assay Text: MTT anticancer assay, A549
# Format: cell-based
# Test Conditions: A549, 50 µg/ml
Listed here are compounds together with their documented % cell viability.
Readout Type: % cell viability (%)

mol=NS(=O)(=O)c1ccc(-n2nc(C(=O)NN=Cc3ccc(Cl)cc3O)cc2-c2ccc(Br)cc2)cc1 readout_type="% cell viability" uom=% result_number=66.94
mol=COc1ccc(-c2cc(C(=O)NN=Cc3ccc(Oc4ccccc4)cc3)nn2-c2ccc(S(N)(=O)=O)cc2)cc1 readout_type="% cell viability" uom=% result_number=33.98
mol=NS(=O)(=O)c1ccc(-n2nc(C(=O)NN=Cc3cccc(Oc4ccccc4)c3)cc2-c2ccc(Cl)cc2)cc1 readout_type="% cell viability" uom=% result_number=46.16
mol=Cc1cc(C=NNC(=O)c2cc(-c3ccc(Br)cc3)n(-c3ccc(S(N)(=O)=O)cc3)n2)cc(C)c1OCc1ccccc1 readout_type="% cell viability" uom=% result_number=62.43
